experiment: qHTS Assay for Lipid Storage Modulators (AID 1519); details: Drosophila S3 cells, BODIPY lipid droplet/cell ratio, laser cytometry; at 25.7 µM (top of the series); cells loaded with oleic acid; further: on the % scale 0 is the no-effect control and ±100 the full control effect
Records with an inconclusive call do not appear.
PROPERTY_NAME: activity change, negative = inhibition (%)
Give the value in % but do not write % after it.

Please review the entries below; each comes with its answer.
Nc1nc(=S)c2ncn([C@H]3O[C@@H](CO)[C@@H](O)[C@@H]3O)c2[nH]1 = -1.4
CC(=O)OCC(=O)[C@@]1(O)CC[C@@H]2[C@H]3CCC4=CC(=O)CC[C@]4(C)[C@]3(F)[C@@H](O)C[C@@]21C = 0.165
C[C@@H](Cc1cccc(C(F)(F)F)c1)NCCOC(=O)c1ccccc1 = -1.81

Now turn to the next compound.
Find the recorded activity change, negative = inhibition belonging to CCN1CCN(C(=O)N[C@H](C(=O)N[C@@H]2C(=O)N3[C@@H]2SC(C)(C)[C@@H]3C(=O)O)c2ccccc2)C(=O)C1=O and report it.
0.264
